The measurements presented in this section are drawn from patent US10308639B2.

Record form. Attribute: pIC50. Fill in for each entry.
Target: PI3Kδ (Homo sapiens)
Construct: made in house
Sequence (O00329 whole entry, one chain of several): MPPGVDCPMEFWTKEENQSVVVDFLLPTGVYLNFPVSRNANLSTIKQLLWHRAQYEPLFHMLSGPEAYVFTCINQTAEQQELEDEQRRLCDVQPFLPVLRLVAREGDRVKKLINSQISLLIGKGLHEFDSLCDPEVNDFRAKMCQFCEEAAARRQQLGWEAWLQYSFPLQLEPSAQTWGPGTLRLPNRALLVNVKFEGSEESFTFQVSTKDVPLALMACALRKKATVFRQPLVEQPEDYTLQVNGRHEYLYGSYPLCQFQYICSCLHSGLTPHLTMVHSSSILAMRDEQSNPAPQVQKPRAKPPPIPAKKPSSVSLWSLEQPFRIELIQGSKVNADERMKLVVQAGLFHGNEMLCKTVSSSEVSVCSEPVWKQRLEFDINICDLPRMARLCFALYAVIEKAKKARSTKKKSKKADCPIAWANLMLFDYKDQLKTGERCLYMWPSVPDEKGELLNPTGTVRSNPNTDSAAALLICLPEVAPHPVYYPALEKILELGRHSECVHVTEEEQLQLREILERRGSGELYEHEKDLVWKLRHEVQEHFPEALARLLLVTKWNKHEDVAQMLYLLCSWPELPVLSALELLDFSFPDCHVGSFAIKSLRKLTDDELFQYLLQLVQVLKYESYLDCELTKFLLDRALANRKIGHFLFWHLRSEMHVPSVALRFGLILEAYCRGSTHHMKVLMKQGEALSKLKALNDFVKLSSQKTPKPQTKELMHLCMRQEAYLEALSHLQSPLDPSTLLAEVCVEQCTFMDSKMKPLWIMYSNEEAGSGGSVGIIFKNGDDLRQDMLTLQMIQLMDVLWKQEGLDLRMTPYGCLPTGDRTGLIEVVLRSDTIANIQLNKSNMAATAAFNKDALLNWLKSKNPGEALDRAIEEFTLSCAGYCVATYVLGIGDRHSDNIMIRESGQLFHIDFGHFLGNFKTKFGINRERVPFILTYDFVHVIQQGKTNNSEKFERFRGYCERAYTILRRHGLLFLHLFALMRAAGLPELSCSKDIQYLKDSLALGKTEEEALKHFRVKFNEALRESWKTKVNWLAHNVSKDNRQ
Test: TR-FRET enzymatic activity assay, PI3Kδ
Type: biochemical
Settings: Table 2a; same assay
Expect pIC50 as a plain number equal to -log10 of the molar concentration.

input: Given `Nc1nc(N)c(Cl)c(N[C@H](c2nc3c(Cl)cc(F)cc3c(=O)n2-c2c[nH]cn2)C2CC2)n1` , state its recorded pIC50.
output: 7.32

input: Similarly, `C[C@H](Nc1nc(N)nc(C(F)F)c1C#N)c1nc2cccc(C(F)F)c2c(=O)n1-c1cc[nH]n1` ?
output: 7.74

input: Similarly, `CCC[C@H](Nc1nc(N)nc(N)c1C#N)c1nc2c(Cl)ccc(Cl)c2c(=O)n1-c1cc[nH]n1` ?
output: 8.70

input: Similarly, `C[C@@H](Nc1nc(N)nc(N)c1C#N)c1nc2c(Cl)cc(F)cc2c(=O)n1-c1cc[nH]n1` ?
output: 7.89

input: Similarly, `C[C@H](Nc1nc(N)nc(N)c1C#N)c1nc2c(Cl)cc(F)cc2c(=O)n1-c1cc[nH]n1` ?
output: 9.70

input: Similarly, `N#Cc1c(N)nc(N)nc1N[C@H](c1nc2c(C(F)F)cc(F)cc2c(=O)n1-c1cc[nH]n1)C1CC1` ?
output: 8.52

input: Similarly, `C[C@H](Nc1ncnn2ccnc12)c1nc2cccc(Cl)c2c(=O)n1-c1ccc[nH]1` ?
output: 9.00

input: Similarly, `Cc1c[nH]nc1-n1c([C@@H](Nc2nc(N)nc(C)c2C#N)C2CC2)nc2cccc(Cl)c2c1=O` ?
output: 8.10

input: Similarly, `C[C@H](NC(=O)c1nc(Cl)c(N)nc1N)c1nc2c(F)ccc(Cl)c2c(=O)n1-c1cn[nH]c1` ?
output: 7.28

input: Similarly, `C[C@H](Nc1nc(C(F)F)nc(N)c1C#N)c1nc2cccc(Cl)c2c(=O)n1-c1cc[nH]n1` ?
output: 6.27

input: Similarly, `C[C@H](Nc1nc(N)nc(N)c1Cl)c1nc2c(Cl)ccc(Cl)c2c(=O)n1-c1cn[nH]c1` ?
output: 8.00

input: Similarly, `C[C@H](Nc1nc(N)nc(N)c1C#N)c1nc2cccc(C(F)F)c2c(=O)n1-c1cc[nH]n1` ?
output: 9.52

input: Similarly, `Nc1nc(N)c(Cl)c(N[C@H](c2nc3cc(F)cc(Cl)c3c(=O)n2-c2cc[nH]n2)C2CC2)n1` ?
output: 7.38

input: Similarly, `Nc1nc(N)c(Cl)c(N[C@H](c2nc3c(C(F)F)cc(F)cc3c(=O)n2-c2cc[nH]n2)C2CC2)n1` ?
output: 6.72

input: Similarly, `C[C@H](Nc1nc(N)nc(C(F)F)c1Cl)c1nc2cc(F)cc(F)c2c(=O)n1-c1cc[nH]n1` ?
output: 5.00

input: Similarly, `C[C@H](Nc1nc(N)nc(N)c1C#N)c1nc2cccc(Cl)c2c(=O)n1-c1ccc[nH]1` ?
output: 9.70

input: Similarly, `C[C@H](Nc1nc(N)nc(N)c1Cl)c1nc2c(F)ccc(F)c2c(=O)n1-c1cc[nH]n1` ?
output: 7.89

input: Similarly, `CCC[C@H](Nc1nc(N)nc(N)c1C#N)c1nc2c(Cl)ccc(Cl)c2c(=O)n1-c1cn[nH]c1` ?
output: 8.70

input: Similarly, `C[C@H](Nc1nc(N)nc(C(F)F)c1C#N)c1nc2c(F)ccc(Cl)c2c(=O)n1-c1cc[nH]n1` ?
output: 8.40

input: Similarly, `C[C@H](Nc1ncnc2sncc12)c1nc2cccc(Cl)c2c(=O)n1-c1cc[nH]n1` ?
output: 7.74

input: Similarly, `C[C@H](Nc1nc(N)nc(N)c1C#N)c1nc2c(Cl)ccc(Cl)c2c(=O)n1-c1cn[nH]c1` ?
output: 9.70

input: Similarly, `Cc1c[nH]nc1-n1c([C@@H](Nc2nc(N)nc(N)c2Cl)C2CC2)nc2c(C#N)cccc2c1=O` ?
output: 6.51

* * *

Molecular target: PI3Kβ (Homo sapiens, UniProt P42338)
Construct: made in house
Sequence (P42338 whole entry): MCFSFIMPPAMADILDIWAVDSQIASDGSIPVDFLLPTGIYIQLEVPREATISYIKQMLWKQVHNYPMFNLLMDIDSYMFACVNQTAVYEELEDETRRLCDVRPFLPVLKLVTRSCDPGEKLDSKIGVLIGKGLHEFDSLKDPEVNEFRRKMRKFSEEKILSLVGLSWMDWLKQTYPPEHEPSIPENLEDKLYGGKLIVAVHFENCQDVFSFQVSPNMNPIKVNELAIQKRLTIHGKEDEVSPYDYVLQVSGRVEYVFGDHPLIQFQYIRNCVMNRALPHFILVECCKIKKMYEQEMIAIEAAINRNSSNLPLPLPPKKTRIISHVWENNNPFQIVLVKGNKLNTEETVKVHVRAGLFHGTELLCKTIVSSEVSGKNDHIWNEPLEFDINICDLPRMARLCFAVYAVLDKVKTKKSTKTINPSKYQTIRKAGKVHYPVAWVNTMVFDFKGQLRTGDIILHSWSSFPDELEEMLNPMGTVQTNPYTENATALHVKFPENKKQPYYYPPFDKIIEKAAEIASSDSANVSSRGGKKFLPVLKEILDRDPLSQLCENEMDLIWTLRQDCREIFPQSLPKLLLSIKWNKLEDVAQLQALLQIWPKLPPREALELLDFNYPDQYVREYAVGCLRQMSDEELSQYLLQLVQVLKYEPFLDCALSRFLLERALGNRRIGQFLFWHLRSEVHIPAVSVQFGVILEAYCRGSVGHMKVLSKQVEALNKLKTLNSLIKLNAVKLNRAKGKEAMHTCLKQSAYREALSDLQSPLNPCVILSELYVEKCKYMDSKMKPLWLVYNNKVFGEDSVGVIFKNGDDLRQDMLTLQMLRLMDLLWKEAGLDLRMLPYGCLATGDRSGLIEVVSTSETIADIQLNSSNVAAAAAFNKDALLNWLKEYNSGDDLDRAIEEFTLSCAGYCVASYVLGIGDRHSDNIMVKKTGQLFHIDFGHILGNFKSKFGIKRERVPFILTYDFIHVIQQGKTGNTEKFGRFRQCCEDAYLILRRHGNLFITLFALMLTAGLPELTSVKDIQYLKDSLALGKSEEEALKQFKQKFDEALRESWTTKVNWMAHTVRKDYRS
Sequence (P27986 whole entry partner): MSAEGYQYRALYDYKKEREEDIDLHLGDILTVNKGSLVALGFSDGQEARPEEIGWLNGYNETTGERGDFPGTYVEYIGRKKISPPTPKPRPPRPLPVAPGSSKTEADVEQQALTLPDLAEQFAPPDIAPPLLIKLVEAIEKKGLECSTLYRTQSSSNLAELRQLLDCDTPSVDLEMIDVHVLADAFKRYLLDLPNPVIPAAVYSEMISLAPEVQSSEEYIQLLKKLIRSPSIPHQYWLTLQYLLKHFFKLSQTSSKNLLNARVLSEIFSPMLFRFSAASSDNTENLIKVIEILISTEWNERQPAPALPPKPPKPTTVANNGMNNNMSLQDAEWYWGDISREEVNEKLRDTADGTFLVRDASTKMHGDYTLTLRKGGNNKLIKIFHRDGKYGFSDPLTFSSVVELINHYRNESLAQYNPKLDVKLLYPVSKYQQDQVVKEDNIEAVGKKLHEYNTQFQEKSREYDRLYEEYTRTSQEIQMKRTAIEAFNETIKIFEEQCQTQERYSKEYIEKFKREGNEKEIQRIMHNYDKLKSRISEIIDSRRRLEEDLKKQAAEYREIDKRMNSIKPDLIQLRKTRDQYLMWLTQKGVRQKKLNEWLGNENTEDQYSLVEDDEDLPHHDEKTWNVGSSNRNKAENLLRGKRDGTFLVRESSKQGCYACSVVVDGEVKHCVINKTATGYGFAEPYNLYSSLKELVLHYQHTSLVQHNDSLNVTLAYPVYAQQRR
Experiment: TR-FRET enzymatic activity assay, PI3Kβ
Assay type: biochemical
Conditions: Table 2a; same assay
PROPERTY: log10(IC50) (log10 of the value in nM)
Annotation: log10 of IC50, nM basis.

input: Given `C[C@H](Nc1nc(N)nc(C(F)F)c1C#N)c1nc2cccc(C(F)F)c2c(=O)n1-c1cn[nH]c1` , state its recorded log10(IC50).
output: 1.89

input: Similarly, `Cc1n[nH]cc1-n1c([C@H](C)Nc2nc(N)nc(N)c2Cl)nc2c(Cl)ccc(Cl)c2c1=O` ?
output: 2.32

input: Similarly, `Cc1c[nH]nc1-n1c([C@@H](Nc2nc(N)nc(N)c2C#N)C2CC2)nc2c(C#N)cccc2c1=O` ?
output: 1.97

input: Similarly, `CCC[C@H](Nc1nc(N)nc(N)c1Cl)c1nc2cccc(Cl)c2c(=O)n1-c1cn[nH]c1` ?
output: 2.20

input: Similarly, `Nc1nc(N)c(Cl)c(N[C@H](c2nc3cccc(C(F)(F)F)c3c(=O)n2-c2cc[nH]n2)C2CC2)n1` ?
output: 1.57

input: Similarly, `C[C@H](Nc1nc(N)nc(N)c1Cl)c1nc2ccc(F)c(Cl)c2c(=O)n1-c1cc[nH]n1` ?
output: 1.32

input: Similarly, `C[C@H](Nc1nc(N)nc(C(F)F)c1C#N)c1nc2c(C(F)F)cc(F)cc2c(=O)n1-c1cc[nH]n1` ?
output: 1.54

input: Similarly, `C[C@H](Nc1nc(N)nc(N)c1Cl)c1nc2c(Cl)cc(F)cc2c(=O)n1-c1n[nH]cc1Br` ?
output: 3.36

input: Similarly, `Nc1nc(N)c(Cl)c(N[C@@H](CO)c2nc3c(Cl)cc(F)cc3c(=O)n2-c2cc[nH]n2)n1` ?
output: 1.97

input: Similarly, `CCC[C@H](Nc1nc(N)nc(N)c1Cl)c1nc2ccc(F)c(Cl)c2c(=O)n1-c1cc[nH]n1` ?
output: 2.08

input: Similarly, `Nc1nc(N)c(Cl)c(N[C@H](c2nc3cccc(C(F)F)c3c(=O)n2-c2cc[nH]n2)C2CC2)n1` ?
output: 1.00

input: Similarly, `N#Cc1c(N[C@H](c2nc3c(F)ccc(Cl)c3c(=O)n2-c2cc[nH]n2)C2CC2)nc(N)nc1C(F)F` ?
output: 1.36

input: Similarly, `C[C@H](Nc1nc(N)nc(N)c1Cl)c1nc2cccc(C(F)(F)F)c2c(=O)n1-c1cc[nH]n1` ?
output: 0.90

input: Similarly, `N#Cc1c(N)nc(N)nc1N[C@H](c1nc2cccc(C(F)F)c2c(=O)n1-c1cc[nH]n1)C1CCC1` ?
output: 0.30

input: Similarly, `Nc1nc(N)c(Cl)c(N[C@H](c2nc3c(Cl)ccc(F)c3c(=O)n2-c2cc[nH]n2)C2CC2)n1` ?
output: 1.72

* * *

Biological target: PI3Kδ (Homo sapiens)
Construct: made in house
Test: TR-FRET enzymatic activity assay, PI3Kδ
Format: biochemical
Details: Table 2; TR-FRET, 2x Km ATP, 30 minutes at 25° C.
Record form. Attribute: IC50. Fill in for each entry.

input: Given C[C@H](Nc1ncnc2occc12)c1nc2cccc(Cl)c2c(=O)n1-c1cc[nH]n1 [Compound 9] , state its recorded IC50.
output: 140 nM

input: Similarly, CC[C@H](Nc1ncnc2scnc12)c1nc2cccc(C#N)c2c(=O)n1-c1cn[nH]c1 [Compound 103] ?
output: 100 nM

input: Similarly, C[C@H](Nc1ncnc(N)c1C#N)c1nc2cccc(Cl)c2c(=O)n1-c1cc(C2CC2)[nH]n1 [Compound 5] ?
output: 28 nM

input: Similarly, C[C@H](Nc1ncnc2ccoc12)c1nc2cccc(Cl)c2c(=O)n1-c1cc[nH]n1 [Compound 61] ?
output: 3 nM

input: Similarly, O=c1c2c(Cl)cccc2nc([C@H](COCc2ccccc2)Nc2ncnc3scnc23)n1-c1cc[nH]n1 [Compound 48] ?
output: 8 nM

input: Similarly, Nc1nc(N)c(Cl)c(N[C@@H](c2ccccc2)c2nc3cccc(Cl)c3c(=O)n2-c2cc[nH]n2)n1 [Compound 109] ?
output: 9 nM

input: Similarly, CC[C@H](Nc1nc(N)nc(N)c1C#N)c1nc2cccc(Cl)c2c(=O)n1-c1cc(CCCOC)[nH]n1 [Compound 49] ?
output: 9 nM

input: Similarly, N#Cc1c(N)nc(N)nc1N[C@H](c1nc2c(Cl)ccc(Cl)c2c(=O)n1-c1cn[nH]c1)C1CC1 [Compound 31] ?
output: 1 nM

input: Similarly, CC[C@H](Nc1nc(N)nc(N)c1C#N)c1nc2c(C)ccc(F)c2c(=O)n1-c1cn[nH]c1 [Compound 35] ?
output: 10 nM

input: Similarly, CC[C@H](Nc1ncnc2scnc12)c1nc2c(Cl)ccc(Cl)c2c(=O)n1-c1cn[nH]c1 [Compound 39] ?
output: 22 nM

input: Similarly, CC[C@H](Nc1nc(N)nc(N)c1C#N)c1nc2c(C)cccc2c(=O)n1-c1cc[nH]n1 [Compound 34] ?
output: 8 nM

input: Similarly, N#Cc1c(N)nc(N)nc1N[C@H](c1nc2c(Cl)cccc2c(=O)n1-c1cn[nH]c1)C1CC1 [Compound 29] ?
output: 6 nM

input: Similarly, C[C@H](Nc1ncnc(N)c1C#Cc1ccc(F)cn1)c1nc2cccc(Cl)c2c(=O)n1-c1cc[nH]n1 [Compound 72] ?
output: 0.5 nM

input: Similarly, CC[C@H](Nc1nc(Cl)nc2[nH]ncc12)c1nc2c(Cl)ccc(Cl)c2c(=O)n1-c1cc[nH]n1 [Compound 82] ?
output: 4100 nM

input: Similarly, Cc1n[nH]c2nc(Cl)nc(N[C@@H](C)c3nc4cccc(Cl)c4c(=O)n3-c3cc[nH]n3)c12 [Compound 89] ?
output: 1900 nM

input: Similarly, CC[C@H](NC(=O)c1cnn2cccnc12)c1nc2c(Cl)ccc(Cl)c2c(=O)n1-c1cc[nH]n1 [Compound 120] ?
output: 720 nM

input: Similarly, CC[C@H](Nc1nc(N)nc(N)c1C#N)c1nc2ccc(F)cc2c(=O)n1-c1cc[nH]n1 [Compound 112] ?
output: 4 nM

input: Similarly, CC[C@H](Nc1ncnc2ccc(Cl)nc12)c1nc2c(C#N)cccc2c(=O)n1-c1cn[nH]c1 [Compound 94] ?
output: 8 nM

input: Similarly, CC[C@H](NC(=O)c1cnn2cccnc12)c1nc2c(Cl)ccc(Cl)c2c(=O)n1-c1cn[nH]c1 [Compound 119] ?
output: 170 nM

input: Similarly, CC[C@H](Nc1ncnc2[nH]cnc12)c1nc2c(Cl)ccc(Cl)c2c(=O)n1-c1cc[nH]n1 [Compound 52] ?
output: 6 nM

input: Similarly, C[C@H](Nc1nc(N)nc(N)c1C#N)c1nc2cccc(Cl)c2c(=O)n1-c1cn[nH]c1 [Compound 15] ?
output: 0.4 nM

input: Similarly, CC[C@H](Nc1nc(Cl)nc2[nH]nc(C)c12)c1nc2c(Cl)ccc(Cl)c2c(=O)n1-c1cc[nH]n1 [Compound 88] ?
output: 2700 nM

input: Similarly, C[C@H](Nc1ncnc2sccc12)c1nc2cccc(Cl)c2c(=O)n1-c1cc[nH]n1 [Compound 60] ?
output: 2 nM

input: Similarly, CC[C@H](Nc1nc(N)nc2[nH]nc(Br)c12)c1nc2c(Cl)ccc(Cl)c2c(=O)n1-c1cc[nH]n1 [Compound 81] ?
output: 16 nM

input: Similarly, CC[C@H](Nc1nc(N)nc(N)c1C#N)c1nc2cccc(C#N)c2c(=O)n1-c1cn[nH]c1 [Compound 102] ?
output: 29 nM

input: Similarly, C[C@H](Nc1nc(N)nc(N)c1C#N)c1nc2ccc(F)cc2c(=O)n1-c1cc[nH]n1 [Compound 115] ?
output: 1 nM

input: Similarly, CC[C@H](Nc1ncnc2scnc12)c1nc2cccc(Br)c2c(=O)n1-c1cc[nH]n1 [Compound 101] ?
output: 0.5 nM

input: Similarly, N#Cc1c(N)nc(N)nc1N1CCC[C@H]1c1nc2cccc(Cl)c2c(=O)n1-c1cc[nH]n1 [Compound 24] ?
output: 4 nM

input: Similarly, C[C@H](Nc1ncnc(N)c1C#N)c1nc2cccc(Cl)c2c(=O)n1-c1cc(C(F)(F)F)[nH]n1 [Compound 6] ?
output: 150 nM

input: Similarly, CC[C@H](Nc1nc(N)nc(N)c1Cl)c1nc2ccc(F)cc2c(=O)n1-c1cc[nH]n1 [Compound 116] ?
output: 44 nM
